Where these numbers come from: the supplement of paper PMC12667976

B1: library; numbered along this chain (parent)
chain: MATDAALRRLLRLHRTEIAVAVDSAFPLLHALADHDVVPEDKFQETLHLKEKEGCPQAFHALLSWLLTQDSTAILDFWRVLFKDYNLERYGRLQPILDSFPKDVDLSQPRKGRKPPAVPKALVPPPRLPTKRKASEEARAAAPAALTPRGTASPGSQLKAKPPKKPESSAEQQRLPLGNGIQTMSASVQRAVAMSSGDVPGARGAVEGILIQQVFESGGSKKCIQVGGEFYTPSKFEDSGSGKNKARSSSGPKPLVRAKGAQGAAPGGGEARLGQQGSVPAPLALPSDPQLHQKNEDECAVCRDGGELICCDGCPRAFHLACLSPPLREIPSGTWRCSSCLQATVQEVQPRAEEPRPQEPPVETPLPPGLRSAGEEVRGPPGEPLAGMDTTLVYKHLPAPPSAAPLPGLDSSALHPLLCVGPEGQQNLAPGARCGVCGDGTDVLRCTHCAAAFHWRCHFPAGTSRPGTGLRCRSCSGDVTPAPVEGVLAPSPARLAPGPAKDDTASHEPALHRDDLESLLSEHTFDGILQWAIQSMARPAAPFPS

Variants of: B1
EXPERIMENTAL DETAILS: AIRE transcriptional activation functional score (insulin promoter-GFP; nonsense median 0, synonymous median 1) (normalised score); higher = higher AIRE activity (more reporter activation)
CONDITION SUMMARY: with insulin promoter-GFP reporter in HEK293
Please use 1.0 whenever AIRE transcriptional activation functional score is not below 0.8, and 0.0 whenever it is.

S324R
0.0
C437V
0.0
D297P
1.0

Exercise: Can E17L be said to have AIRE transcriptional activation functional score at or above 0.8?
Solution: 0.0

Exercise: Can I96W be said to have AIRE transcriptional activation functional score at or above 0.8?
Solution: 0.0

Exercise: Can A21N be said to have AIRE transcriptional activation functional score at or above 0.8?
Solution: 0.0

Exercise: Can P109S be said to have AIRE transcriptional activation functional score at or above 0.8?
Solution: 1.0

Exercise: Can S241Q be said to have AIRE transcriptional activation functional score at or above 0.8?
Solution: 1.0

Exercise: Can V104I be said to have AIRE transcriptional activation functional score at or above 0.8?
Solution: 1.0

Exercise: Can G277L be said to have AIRE transcriptional activation functional score at or above 0.8?
Solution: 1.0

Exercise: Can S153E be said to have AIRE transcriptional activation functional score at or above 0.8?
Solution: 1.0

Exercise: Can L283K be said to have AIRE transcriptional activation functional score at or above 0.8?
Solution: 1.0

Exercise: Can E229K be said to have AIRE transcriptional activation functional score at or above 0.8?
Solution: 0.0

Exercise: Can A532N be said to have AIRE transcriptional activation functional score at or above 0.8?
Solution: 0.0

Exercise: Can S248Q be said to have AIRE transcriptional activation functional score at or above 0.8?
Solution: 0.0

Exercise: Can G277A be said to have AIRE transcriptional activation functional score at or above 0.8?
Solution: 1.0

Exercise: Can L406K be said to have AIRE transcriptional activation functional score at or above 0.8?
Solution: 0.0

Exercise: Can C437T be said to have AIRE transcriptional activation functional score at or above 0.8?
Solution: 0.0

Exercise: Can S169F be said to have AIRE transcriptional activation functional score at or above 0.8?
Solution: 1.0

Exercise: Can P254Y be said to have AIRE transcriptional activation functional score at or above 0.8?
Solution: 1.0
